# Test details: Content of the drugs in blood and brain after intramuscular administration (Askew method)
# Assay type: in vivo, Ratten
# Condition summary: rat, brain, im; Gehirn; Dosis 50 mg/kg intramuskulär; 2 St.; Ratten; read-out: Konzentration (µg/g) 2 St. (converted)
Assay endpoint: concentration at 2 h
# output: numeric value plus its unit

>>> result("ON=Cc1cc[n+](CCC[n+]2ccc(C=NO)cc2)cc1 [TMB-4, reference compound]")
"0.34 µg/g"

Could you now look at the following compound, please?
Prompt: Quick check: concentration at 2 h of `C=CC[n+]1ccccc1C=NO` ?
Response: 1.12 µg/g

###

The compounds listed here are annotated with their concentration at 0.5 h.
# Test details: Content of the drugs in blood and brain after intramuscular administration (Askew method)
# Type: in vivo, Ratten
# Condition summary: rat, blood, im; Blut; Dosis 50 mg/kg intramuskulär; 30 min; Ratten; read-out: Konzentration (µg/g) 30 min
# Method: Mit Hilfe der Methode von Askew (1956) wurde in der Dynamik der Gehalt des erfindungsgemäßen Arzneimittels im Blut und Gehirn der Tiere untersucht. Die Untersuchungen wurden im Vergleich zum bekannten Präparak TMB-4 vorgenommen. Die Geschwindigkeit des Eindringens beider Präparate ins Blut und deren Konzentration wurden bei der-intramuskulären Einführung in Dosen von 20 ..und 50 mg/kg und der Gehirnspiegel - in einer Dosis von 50 mg/kg bestimmt. […]
Write it as a number; the unit µg/g goes unstated.

>>> number("C=CC[n+]1ccccc1C=NO [das erfindungsgemässe Arzneimittel, N-Allyl-2-pyridinaldoxiinbromid]")
12.7

Prompt: Quick one: concentration at 0.5 h for ON=Cc1cc[n+](CCC[n+]2ccc(C=NO)cc2)cc1 [TMB-4, reference compound] ?
Response: 15.1
